Target: T1, NHERF3_3, Q5T2W1
T1 sequence (Q5T2W1 238-333, limits assumed, looked up): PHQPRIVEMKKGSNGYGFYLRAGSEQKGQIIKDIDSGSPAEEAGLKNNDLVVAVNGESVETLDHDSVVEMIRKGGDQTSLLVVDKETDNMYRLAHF
Assay: holdup assay
Set-up: key: below the threshold = too weak to quantify, mostly under pKd 3.1 to 4
Settings: plain residues with an end cap or a label only (N-terminal biotin on a linker: ttds)
measured_endpoint: pKd

Sample records with pKd:
- binder: "SGSRPSATVV [HPV73-E6, Q82005]"
  pKd: "below the threshold"
- binder: "VDFPPKESSL [ACVR2A, P27037]"
  pKd: "below the threshold"
- binder: "SSLQSLETSV [ATP2B4, P23634]"
  pKd: "below the threshold"
- binder: "SKPTRRETEV [HPV35-E6, P27228]"
  pKd: "below the threshold"
- binder: "RLPKIKETTV [FRMPD4, Q14CM0]"
  pKd: "below the threshold"
- binder: "EMDRRPATVV [PLCB4, Q15147]"
  pKd: "below the threshold"
- binder: "RLQRRRETQV [HPV18-E6, P06463]"
  pKd: "below the threshold"

Need pKd, item FHPLGADSQV [SLC2A1, P11166]
below the threshold
